Biological target: UniProt Q9NWZ3
Sequence (Q9NWZ3 whole entry): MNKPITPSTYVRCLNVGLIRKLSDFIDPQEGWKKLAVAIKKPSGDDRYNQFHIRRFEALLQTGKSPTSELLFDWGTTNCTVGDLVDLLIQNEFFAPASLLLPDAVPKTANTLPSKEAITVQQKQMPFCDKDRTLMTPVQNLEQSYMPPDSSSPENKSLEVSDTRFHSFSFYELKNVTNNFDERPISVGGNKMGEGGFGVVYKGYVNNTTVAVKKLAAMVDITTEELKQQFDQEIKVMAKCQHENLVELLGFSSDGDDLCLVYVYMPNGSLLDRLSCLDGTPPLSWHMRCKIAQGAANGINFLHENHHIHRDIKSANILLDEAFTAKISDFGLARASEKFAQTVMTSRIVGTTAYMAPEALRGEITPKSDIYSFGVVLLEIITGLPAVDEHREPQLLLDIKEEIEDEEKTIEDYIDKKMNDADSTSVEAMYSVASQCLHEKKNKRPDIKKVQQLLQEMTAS
Experiment: Inhibitory effects of compounds on kinase activity (fluorescence microfluidic mobility detection, competitive with ATP)
Format: biochemical
Conditions: Table 2; IRAK4 6 nM, ATP 10 μM, substrate FAM-P8 3 μM
Method: Based on an experimental method of fluorescence microfluidic mobility detection, an IC50 value of competitive binding of kinase IRAK4 to ATP by the compounds was determined. […] 5) Data reading: the CaliperEZ Reader II instrument was used to read the conversion rate data. […] 6) Data calculation: the conversion rate data was copied from CaliperEZ Reader II and converted into inhibition rate data. […]
pIC50: −log10 of the molar value.
MEASURED_ENDPOINT: pIC50

Example entries and their recorded answers appear below.
COMPOUND | pIC50
COc1cc2nn(C3CC4(CCN(C(=O)C5(C)CCN(c6ccc7c(c6)C(=O)N(C6CCC(=O)NC6=O)C7=O)CC5)CC4)C3)cc2cc1NC(=O)c1cccc(C(F)(F)F)n1 (centres unmarked) [Compound I-37] | 7.52
COc1cc2nn(C3CC4(CCN(C(=O)C5CCN(c6ccc7c(c6)C(=O)N([C@H]6CCC(=O)NC6=O)C7=O)CC5)CC4)C3)cc2cc1NC(=O)c1cccc(C(F)(F)F)n1 [Compound I-65] | 7.58
COc1cc2nn(C3CC4(CCN(C(=O)C5CCN(c6ccc7c(c6)C(=O)N(C6CCC(=O)NC6=O)C7=O)CC5)CC4)C3)cc2cc1NC(=O)c1ccn(C(F)F)n1 (centres unmarked) [Compound I-47] | 8.04
COc1cc2nn(C3CC4(CCN(C(=O)C5CCN(c6ccc7c(c6)C(=O)N(C6CCC(=O)NC6=O)C7=O)CC5(F)F)CC4)C3)cc2cc1NC(=O)c1cccc(C(F)(F)F)n1 (centres unmarked) [Compound I-35] | 7.48
COc1cc2nn(C3CCN(C(=O)CN4CCN(c5ccc6c(c5)C(=O)N(C5CCC(=O)NC5=O)C6=O)CC4)CC3)cc2cc1NC(=O)c1cccc(C(F)(F)F)n1 (centres unmarked) [II-4] | 7.70

(I) COc1cc2nn(C3CC4(CCN(C(=O)C5CCN(c6cc7c(cc6F)C(=O)N([C@@H]6CCC(=O)NC6=O)C7=O)CC5)CC4)C3)cc2cc1NC(=O)c1cccc(C(F)(F)F)n1 [Compound I-62]
(II) COc1cc2nn(C3CCN(CC(=O)N4CCN(c5ccc6c(c5)CN(C5CCC(=O)NC5=O)C6=O)CC4)CC3)cc2cc1NC(=O)c1cccc(C(F)(F)F)n1 (centres unmarked) [II-7]
Task: Of I and II , which one carries the higher reported pIC50? Please indicate the selected item by its label.
Result: II

(I) COc1cc2nn(C3CC4(CCN(C(=O)[C@H]5CC[C@H](Nc6ccc7c(c6)C(=O)N([C@H]6CCC(=O)NC6=O)C7=O)CC5)CC4)C3)cc2cc1NC(=O)c1cccc(C(F)(F)F)n1 [Compound I-59]
(II) CC(C)(O)c1cc2nn(C3CC4(CCN(C(=O)C5CCN(c6ccc7c(c6)C(=O)N(C6CCC(=O)NC6=O)C7=O)CC5)CC4)C3)cc2cc1NC(=O)c1cccc(C(F)(F)F)n1 (centres unmarked) [Compound I-5]
Task: Of I and II , which one carries the higher reported pIC50? Please indicate the selected item by its label.
Result: II
(II: 7.95, I: 7.56)
